Experiment: Visual color tone of polymerized plate under sunlight (Example 15)
Type: physicochemical
Details: 0.05 part, with chromene 2 (0.03 part)

- compound: "CCC(C(=O)C[N+](=O)[O-])N1C(=O)C2=C(C3CC3)c3cc(OC)cc(OC)c3C3(C4CC5CC(C4)CC3C5)C2C1=O (stereo not shown)"
  Color tone in T0: "gray"
- compound: "O=C1OC(=O)C2C1=C(C1CC1)c1c(sc3c1CCCC3)C21C2CCCC1CCC2 (stereo not shown)"
  Color tone in T0: "gray"
- compound: "CCOC1CC1C1=C2C(=O)N(C(C#N)CC)C(=O)C2C2(c3sc(OC)c(C)c31)C1CC3CC(C1)CC2C3 (stereo not shown)"
  Color tone in T0: "gray"
- compound: "NC1CC1C1=C2C(=O)N(COC(=O)Cc3cccc4ccccc34)C(=O)C2C2(c3c1ccn3-c1ccccc1)C1(O)CCC2(O)CC1 (stereo not shown)"
  Color tone in T0: "green"
